system: A549; experiment: Cytotoxicity against human A549 cells assessed as reduction in cell viability using compound addition to cell culture cells in log phase of growth and incubated for 48 hrs by MTT assay; format: functional, cell-based; conditions: Homo sapiens, A549, 48 h; read-out: IC50
pIC50: −log10 of the molar value.
endpointLabel: pIC50

>  <structureString>
C=CCOC(=O)/C(CO)=C(C)\C=C\[C@@H](C)[C@H]1CC[C@H]2[C@@H]3C[C@H]4O[C@]45[C@@H](O)C=CC(=O)[C@]5(C)[C@H]3CC[C@]12C

>  <numericValue>
5.08

$$$$
>  <structureString>
CCCC(=O)OCC1=C(C)C[C@H]([C@@H](C)[C@H]2CC[C@H]3[C@@H]4C[C@H]5O[C@]56[C@@H](OC(=O)CCC)C=CC(=O)[C@]6(C)[C@H]4CC[C@]23C)OC1=O

>  <numericValue>
5.72

$$$$
>  <structureString>
CC1=C(COC(=O)C(C)(C)C)C(=O)O[C@@H]([C@@H](C)[C@H]2CC[C@H]3[C@@H]4C[C@H]5O[C@]56C(=O)C=CC(=O)[C@]6(C)[C@H]4CC[C@]23C)C1

>  <numericValue>
5.64

$$$$
>  <structureString>
CCCCN[C@H]1CC(=O)[C@]2(C)[C@H]3CC[C@]4(C)[C@@H]([C@H](C)[C@H]5CC(C)=C(CO)C(=O)O5)CC[C@H]4[C@@H]3C[C@H]3O[C@]32[C@H]1O

>  <numericValue>
5.02

$$$$
>  <structureString>
CC1=C(COC(=O)c2ccoc2)C(=O)O[C@@H]([C@@H](C)[C@H]2CC[C@H]3[C@@H]4C[C@H]5O[C@]56[C@@H](OC(=O)c5ccoc5)C=CC(=O)[C@]6(C)[C@H]4CC[C@]23C)C1

>  <numericValue>
5.42

$$$$
